# Subject of test: BACE1 enzyme (Homo sapiens, UniProt P56817)
# Construct: transfected with a soluble BACE construct (BACE1deltaTM96His); His (C)
# Sequence (P56817 46-457 limits assumed): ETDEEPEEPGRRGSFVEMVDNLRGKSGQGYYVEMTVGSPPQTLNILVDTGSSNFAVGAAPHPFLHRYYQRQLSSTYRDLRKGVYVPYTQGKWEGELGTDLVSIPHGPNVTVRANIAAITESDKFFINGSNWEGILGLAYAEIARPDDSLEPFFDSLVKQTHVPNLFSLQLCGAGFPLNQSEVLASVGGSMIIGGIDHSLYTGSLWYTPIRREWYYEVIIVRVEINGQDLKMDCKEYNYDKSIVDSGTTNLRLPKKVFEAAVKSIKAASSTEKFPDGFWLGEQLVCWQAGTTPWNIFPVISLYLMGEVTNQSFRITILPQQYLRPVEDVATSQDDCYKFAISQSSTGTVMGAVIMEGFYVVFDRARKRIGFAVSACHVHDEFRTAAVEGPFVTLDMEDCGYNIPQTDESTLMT
# Assay explanation: BACE1 Cell-Free Assay (fluorescence polarization, cleavage of synthetic APP substrate)
# Reported conditions: geometric mean of 2-4 determinations unless otherwise indicated (b: ≥5 determinations; c: single determination); 0.1 nM BACE1, 150 nM peptide substrate, pH 4.5, 3 hours at 37° C.
# From the text: BACE1 Cell-Free Assay: Beta-secretase (BACE) is one of the enzymes involved in the generation of the amyloid beta peptide found in the amyloid plaques of Alzheimer's disease patients. This assay measures the inhibition of the beta-secretase enzyme as it cleaves a non-native peptide. […]
Measurement name: IC50 (nM)
Give bare numbers, in nM.

Some compounds with recorded IC50:
IC50 in this record for COC[C@@]1(C)C[C@H]2CSC(N)=N[C@@]2(c2nc(NC(=O)c3ccc(OC(F)F)cn3)cs2)CO1 : 105

Reported IC50 ( CC(F)(F)Oc1ccc(C(=O)Nc2csc([C@]34COC(C)(C)C[C@H]3CSC(N)=N4)n2)nc1 (single isomer, unassigned) ) = 416

Lab book: IC50 of Cc1cc(OC(F)F)cnc1C(=O)Nc1csc([C@@]23COC(C)(C)C[C@@H]2CSC(N)=N3)n1 (single isomer, unassigned) noted as 14800

The compound listed as CC1(C)C[C@H]2CSC(N)=N[C@@]2(c2nc(NC(=O)C34CC(C3)C4)cs2)CO1 shows IC50 equal to 734

IC50 for COC(C)(C)C(=O)Nc1csc([C@]23COC(C)(C)C[C@H]2CSC(N)=N3)n1 is 1690

Turning to the following compound.
# IC50 (compound: CC1(C)C[C@@H]2CSC(N)=N[C@]2(c2nc(NC(=O)c3ccn(C(F)F)n3)cs2)CO1 (single isomer, unassigned) ) is 6960
